Source listed as patent US20220362394A1.

Recorded Kd by entry
biological target: T1, rat BCMA on cells (rat); test: FACS, 293T-ratBCMA cells
T1 construct: whole, on cells

| BINDER | UNIT_TEXT | Kd |
| --- | --- | --- |
| 10H1 (antibody, V domains shown, Chicken HybriFree-derived antibody; also called Antibody 45) VH: AVTLDESGGGLQTPGGALSLVCKASGFTFSGYGMGWMRQAPGKGLEYVARINSAGSDTDYGAAVKGRATISRDNGQSTVRLQLNNLRAEDTATYFCTRGGGGASIDGWGHGTEVIVSS VL: ALTQPSSVSANPGETVKITCSGGGNYYGSYYYGWYQQKAPGSAPVTVIYNNNNRPSNIPSRFSGSKSGSTGTLTITGVQAEDEAVYFCGGFDSSSDAIFGAGTTLTVL | nM | 0.39 |
| 10F4 (antibody, V domains shown, Chicken HybriFree-derived antibody; also called Antibody 37) VH: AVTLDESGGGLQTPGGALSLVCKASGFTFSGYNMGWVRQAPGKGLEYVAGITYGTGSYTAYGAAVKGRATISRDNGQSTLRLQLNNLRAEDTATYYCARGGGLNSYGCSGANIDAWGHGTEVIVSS VL: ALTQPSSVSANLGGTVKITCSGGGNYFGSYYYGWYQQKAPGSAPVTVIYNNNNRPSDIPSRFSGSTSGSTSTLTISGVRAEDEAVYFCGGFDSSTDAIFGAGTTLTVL | nM | 5.47 |
| 10E10 (antibody, V domains shown, Chicken HybriFree-derived antibody; also called Antibody 46) VH: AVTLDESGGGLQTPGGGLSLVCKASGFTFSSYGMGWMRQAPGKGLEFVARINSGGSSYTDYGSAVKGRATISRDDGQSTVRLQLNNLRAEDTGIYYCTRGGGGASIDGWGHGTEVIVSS VL: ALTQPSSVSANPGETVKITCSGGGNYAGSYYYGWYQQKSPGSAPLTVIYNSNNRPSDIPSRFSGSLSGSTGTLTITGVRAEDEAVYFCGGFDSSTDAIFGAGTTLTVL | nM | 6.83 |
